tested_target: KRAS WT (Homo sapiens, UniProt P01116+P62937)
Sequence (P01116 1-169 isoform P01116-2 limits assumed, one chain of several): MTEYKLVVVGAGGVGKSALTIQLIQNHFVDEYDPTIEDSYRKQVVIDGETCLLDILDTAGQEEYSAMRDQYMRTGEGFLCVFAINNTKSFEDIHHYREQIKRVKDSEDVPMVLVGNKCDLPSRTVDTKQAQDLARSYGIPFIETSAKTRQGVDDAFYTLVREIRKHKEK
assay_overview: Disruption of BRAF RBD interaction with Ras (FRET / MOA assay, with Cyclophilin A)
Format: biochemical
condition_notes: KRAS WT; read-out: KRAS WT FRET data IC50
value_kind: IC50

Examples with their reported IC50 follow.
1. C=CC(=O)N1CC(NC[C@H](C(=O)N[C@H]2Cc3cc(O)cc(c3)-c3ccc4c(c3)c(c(-c3cccnc3COC)n4CC)CC(C)(C)COC(=O)[C@@H]3CCCN(N3)C2=O)C(C)C)C1 | > 10000 nM
2. CCn1c(-c2cc(N3CCN(C)CC3)cnc2[C@H](C)OC)c2c3cc(ccc31)-c1csc(n1)C[C@H](NC(=O)[C@H](C(C)C)N(C)C(=O)N1CC(N(C)C)C1)C(=O)N1CCC[C@H](N1)C(=O)OCC(C)(C)C2 (atropisomer, axis not shown) | 100 to 1000 nM

For each entry beneath this line, provide reported IC50.
1. C=CC(=O)N1CCN(C(=O)N(C)[C@H](C(=O)N[C@H]2Cc3cc(O)cc(c3)-c3ccc4c(c3)c(c(-c3ccccc3CCOC)n4CC)CC(C)(C)COC(=O)[C@@H]3CCCN(N3)C2=O)C(C)C)CC1
2. CCn1c(-c2cccnc2[C@H](C)OC)c2c3cc(ccc31)-c1cc(O)cc(c1)C[C@H](NS(=O)(=O)CC1OCCC13CNC3)C(=O)N1CCC[C@H](N1)C(=O)OCC(C)(C)C2 (mixture of isomers)
3. CCn1c(-c2cccnc2[C@H](C)OC)c2c3cc(ccc31)-c1csc(n1)C[C@H](NC(=O)[C@H](C(C)C)N(C)C(=O)N1CCO[C@@H](C)C1)C(=O)N1CCC[C@H](N1)C(=O)OCC(C)(C)C2 (atropisomer, axis not shown)

[out]
["1000 to 10000 nM", "> 10000 nM", "100 to 1000 nM"]

---

tested_target: KRAS G12D (Homo sapiens, UniProt P01116+P62937, G12D)
Sequence (P01116 1-169 isoform P01116-2 G12D limits assumed): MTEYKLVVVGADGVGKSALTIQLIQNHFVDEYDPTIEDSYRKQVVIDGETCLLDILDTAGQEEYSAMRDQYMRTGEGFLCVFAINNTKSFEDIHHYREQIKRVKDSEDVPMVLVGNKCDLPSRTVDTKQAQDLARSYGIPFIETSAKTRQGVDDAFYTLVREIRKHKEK
Sequence (P62937 whole entry): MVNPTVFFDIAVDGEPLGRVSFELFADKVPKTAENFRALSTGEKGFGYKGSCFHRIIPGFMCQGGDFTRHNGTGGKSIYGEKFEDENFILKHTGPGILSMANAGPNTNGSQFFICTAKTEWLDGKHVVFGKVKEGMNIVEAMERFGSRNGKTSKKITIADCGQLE
assay_overview: Disruption of BRAF RBD interaction with Ras (FRET / MOA assay, with Cyclophilin A)
Format: biochemical
condition_notes: read-out: KRAS G12D FRET data, IC50
value_kind: IC50

Examples with their reported IC50 follow.
1. CCn1c(-c2cccnc2[C@H](C)OC)c2c3cc(ccc31)-c1cc(O)cc(c1)C[C@H](NC(=O)[C@H](C(C)C)N(C)C(=O)C1NCCC13CC3)C(=O)N1CCC[C@H](N1)C(=O)OCC(C)(C)C2 (stereo partly drawn) | 0.01 to 0.1 µM
2. CCn1c(-c2cccnc2[C@H](C)OC)c2c3cc(ccc31)N1CCC[C@@H](C[C@H](NC(=O)[C@H](C(C)C)N(C)C(=O)C3(F)CCN(C(=O)C#CC(C)(C)N(C)C)CC3)C(=O)N3CCCC(N3)C(=O)OCC(C)(C)C2)C1 | > 10 µM
3. CCn1c(-c2cccnc2[C@H](C)OC)c2c3cc(ccc31)-c1csc(n1)C[C@H](NC(=O)[C@H]1CCCO1)C(=O)N1CCC[C@H](N1)C(=O)OCC(C)(C)C2 (atropisomer, axis not shown) | 1 to 10 µM
4. CCn1c(-c2cccnc2[C@H](C)OC)c2c3cc(ccc31)-c1csc(n1)C[C@H](NC(=O)[C@H](C(C)C)N(C)C(=O)N(C)CC(C)C)C(=O)N1CCC[C@H](N1)C(=O)OCC(C)(C)C2 | 0.1 to 1 µM
5. CCN(C(=O)N(C)[C@H](C(=O)N[C@H]1Cc2nc(cs2)-c2ccc3c(c2)c(c(-c2cccnc2[C@H](C)OC)n3CC)CC(C)(C)COC(=O)[C@@H]2CCCN(N2)C1=O)C(C)C)C1CC1 | 1 to 10 µM
6. CCn1c(-c2cccnc2[C@H](C)OC)c2c3cc(ccc31)-c1cccc(c1)C[C@H](NC(=O)[C@@H](COC1CN(C(=O)C#C[C@@H]3COCCN3C)C1)C(C)C)C(=O)N1CCC[C@H](N1)C(=O)OCC(C)(C)C2 (atropisomer, axis not shown) | > 10 µM

For each entry beneath this line, provide reported IC50.
1. CCn1c(-c2cccnc2[C@H](C)OC)c2c3cc(ccc31)-c1csc(n1)C[C@H](NC(=O)[C@H]1CCO1)C(=O)N1CCC[C@H](N1)C(=O)OCC(C)(C)C2
2. C=CC(=O)N1CC[C@H](C(=O)N(C)[C@H](C(=O)N[C@H]2Cc3cc(O)cc(c3)-c3ccc4c(c3)c(c(-c3cnn(C)c3)n4CC)CC(C)(C)COC(=O)[C@@H]3CCCN(N3)C2=O)C(C)C)C1
3. CCn1c(-c2cccnc2[C@H](C)OC)c2c3cc(ccc31)N1CCO[C@@H](C[C@H](NC(=O)[C@H](C(C)C)N(C)C(=O)[C@@]3(F)CCN(C(=O)C#CC(C)(C)N4CCC4)C3)C(=O)N3CCC[C@H](N3)C(=O)OCC(C)(C)C2)C1

[out]
1. 1 to 10 µM
2. > 10 µM
3. > 10 µM

---

tested_target: NRAS Q61R (Homo sapiens, UniProt P01111+P62937, Q61R)
Sequence (P01111 whole entry Q61R, one chain of several): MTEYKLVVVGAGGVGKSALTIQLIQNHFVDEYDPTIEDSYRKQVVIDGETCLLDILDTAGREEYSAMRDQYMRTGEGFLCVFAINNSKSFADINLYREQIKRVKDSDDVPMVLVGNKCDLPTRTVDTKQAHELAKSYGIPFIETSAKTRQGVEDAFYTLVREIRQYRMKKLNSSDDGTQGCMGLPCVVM
assay_overview: Disruption of BRAF RBD interaction with Ras (FRET / MOA assay, with Cyclophilin A)
Type: biochemical
condition_notes: NRAS Q61R; read-out: NRAS Q61R FRET data IC50
pIC50: −log10 of the molar value.
value_kind: pIC50

For each entry beneath this line, provide reported pIC50.
1. CCn1c(-c2cccnc2[C@H](C)OC)c2c3cc(ccc31)-c1csc(n1)C[C@H](NC(=O)[C@H](C(C)C)N(C)C(=O)N1CC(OC)C1)C(=O)N1CC[C@H](C)[C@H](N1)C(=O)OCC(C)(C)C2
2. CCn1c(-c2cccnc2[C@H](C)OC)c2c3cc(ccc31)-c1cc(O)cc(c1)C[C@H](NC(=O)C1[C@H]3COC[C@@H]13)C(=O)N1CCC[C@H](N1)C(=O)OCC(C)(C)C2 (stereo partly shown)
3. CCn1c(-c2cccnc2[C@H](C)OC)c2c3cc(ccc31)-c1csc(n1)C[C@H](NC(=O)[C@H](C(C)C)N(C)C(=O)N1CCCC13CCOCC3)C(=O)N1CCC[C@H](N1)C(=O)OCC(C)(C)C2 (atropisomer, axis not shown)
4. CCn1c(-c2cnccc2COC)c2c3cc(ccc31)-c1cc(O)cc(c1)C[C@H](NC(=O)[C@H](C(C)C)N(C)S(C)(=O)=O)C(=O)N1CCC[C@H](N1)C(=O)OCC(C)(C)C2

[out]
6.00 to 7.00
5.00 to 6.00
7.00 to 8.00
5.00 to 6.00

---

tested_target: KRAS G13C (Homo sapiens, UniProt P01116+P62937, G13C)
Sequence (P01116 1-169 isoform P01116-2 G13C, one chain of several): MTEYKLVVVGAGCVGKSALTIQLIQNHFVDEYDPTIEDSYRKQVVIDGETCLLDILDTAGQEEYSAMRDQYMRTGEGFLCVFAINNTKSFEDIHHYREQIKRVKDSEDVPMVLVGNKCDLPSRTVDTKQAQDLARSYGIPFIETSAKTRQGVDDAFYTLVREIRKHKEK
assay_overview: Disruption of BRAF RBD interaction with Ras (FRET / MOA assay, with Cyclophilin A)
Type: biochemical
condition_notes: KRAS G13C FRET data, IC50
pIC50: −log10 of the molar value.
Exercise: for every item that follows, state its recorded pIC50.

1. CCn1c(-c2cnccc2COC)c2c3cc(ccc31)-c1cc(O)cc(c1)C[C@H](NC(=O)[C@H](C(C)C)N(C)C(=O)[C@H]1CCN(C(=O)OC)C1)C(=O)N1CCC[C@H](N1)C(=O)OCC(C)(C)C2 | 6.00 to 7.00
2. CCn1c(-c2cccnc2[C@H](C)OC)c2c3cc(ccc31)-c1csc(n1)C[C@H](NC(=O)[C@H](C(C)C)N(C)C(=O)OC)C(=O)N1CCC[C@H](N1)C(=O)OCC(C)(C)C2 | 6.00 to 7.00
3. CCn1c(-c2cnccc2COC)c2c3cc(ccc31)-c1cc(O)cc(c1)C[C@H](NC(=O)[C@H](C(C)C)N(C)S(C)(=O)=O)C(=O)N1CCC[C@H](N1)C(=O)OCC(C)(C)C2 | 5.00 to 6.00
4. CCn1c(-c2cnccc2COC)c2c3cc(ccc31)-c1cc(O)cc(c1)C[C@H](NC(=O)[C@H](C(C)C)N(C)C(=O)[C@H]1CCN(C=O)C1)C(=O)N1CCC[C@H](N1)C(=O)OCC(C)(C)C2 | 6.00 to 7.00

For each entry beneath this line, provide reported pIC50.
1. CCn1c(-c2cnccc2COC)c2c3cc(ccc31)-c1cc(O)cc(c1)C[C@H](NC(=O)[C@H](C(C)C)N(C)C(=O)OC1CCOC1)C(=O)N1CCC[C@H](N1)C(=O)OCC(C)(C)C2 (some centres unmarked)
2. CCn1c(-c2cnccc2COC)c2c3cc(ccc31)-c1cc(O)cc(c1)C[C@H](NC(=O)[C@H](C(C)C)N(C)C(=O)[C@H]1CCN(S(C)(=O)=O)C1)C(=O)N1CCC[C@H](N1)C(=O)OCC(C)(C)C2

[out]
1: 5.00 to 6.00; 2: 6.00 to 7.00

For each entry beneath this line, provide reported pIC50.
1. CCn1c(-c2cccnc2[C@H](C)OC)c2c3cc(ccc31)-c1cccc(c1)C[C@H](NC(=O)[C@H](C(C)C)N(C)C(=O)[C@H]1CCN(C(=O)CNC)C1)C(=O)N1CCC[C@H](N1)C(=O)OCC(C)(C)C2
2. CCn1c(-c2cccnc2[C@H](C)OC)c2c3cc(ccc31)-c1csc(n1)C[C@H](NC(=O)[C@H](C(C)C)N(C)C(=O)N1CCC[C@H](CN(C)C)C1)C(=O)N1CCC[C@H](N1)C(=O)OCC(C)(C)C2 (atropisomer, axis not shown)

[out]
1. 6.00 to 7.00
2. 7.00 to 8.00
